- Test Target: HLA-A*03:01
- Method Description: IEDB peptide-MHC binding, purified MHC/direct/fluorescence; filed as Kd, often an IC50 or EC50 that approximates it; bounds were set here for any values at or beyond the usual limits of such assays
- Condition Label: source organism: Mammarenavirus tacaribeense
Readout: Kd (nM)
# value in nM; strip the unit string

Consider the sequence SLYGRYNCK and give its measured Kd.
89

* * *

- Test Target: HLA-A*29:02
- Method Description: IEDB peptide-MHC binding, purified MHC/direct/fluorescence; filed as Kd, often an IC50 or EC50 that approximates it; bounds were set here for any values at or beyond the usual limits of such assays
- Condition Label: source organism: Sudan virus - Boniface, Sudan,1976
Readout: Kd

# get_value(readout='Kd', item= TMMRHRREL )
≥ 20 µM

* * *

- Test Target: HLA-A*02:16
- Method Description: IEDB peptide-MHC binding, purified MHC/direct/fluorescence; filed as Kd, often an IC50 or EC50 that approximates it; bounds were set here for any values at or beyond the usual limits of such assays
- Condition Label: source organism: Escherichia coli O157:H7 str. EC869
Readout: Kd

Fill blank: measured Kd of the sequence YGSWFGLIY is ____.
≥ 20 µM

* * *

- Test Target: HLA-B*44:03
- Method Description: IEDB peptide-MHC binding, purified MHC/competitive/radioactivity; filed as Kd, often an IC50 or EC50 that approximates it; bounds were set here for any values at or beyond the usual limits of such assays
- Condition Label: source organism: Dengue virus 1 Brazil/97-11/1997
Readout: pKd
The quantity pKd is defined as the negative base-10 logarithm of the molar concentration.

State the recorded pKd for this entry: MEVTAKWLWG
6.89

* * *

- Test Target: HLA-B*18:01
- Method Description: IEDB peptide-MHC binding, purified MHC/direct/fluorescence; filed as Kd, often an IC50 or EC50 that approximates it; bounds were set here for any values at or beyond the usual limits of such assays
- Condition Label: source organism: Influenza A virus (A/Memphis/1/1986(H3N2))
Readout: Kd

Reported Kd, sequence NHDGIQAGV : ____
≥ 20 µM

* * *

- Test Target: HLA-B*51:01
- Method Description: IEDB peptide-MHC binding, purified MHC/competitive/radioactivity; filed as Kd, often an IC50 or EC50 that approximates it; bounds were set here for any values at or beyond the usual limits of such assays
- Condition Label: source organism: SARS coronavirus Tor2
Readout: pKd
# reply with the number alone; pKd is -log10 of concentration in mol/L

Given IPTNFSISI , state its recorded pKd.
7.24

* * *

- Test Target: HLA-A*01:01
- Method Description: IEDB peptide-MHC binding, purified MHC/competitive/fluorescence; bounds were set here for any values at or beyond the usual limits of such assays
- Condition Label: source organism: Zaire ebolavirus
Readout: pIC50
Conceptually, pIC50 converts a concentration in mol/L into minus its log10.

Which value of pIC50 has been reported for ITDKIDQII in the records?
5.23

* * *

- Test Target: HLA-A*02:19
- Method Description: IEDB peptide-MHC binding, purified MHC/competitive/fluorescence; filed as Kd, often an IC50 or EC50 that approximates it; bounds were set here for any values at or beyond the usual limits of such assays
- Condition Label: source organism: Vibrio cholerae 2740-80
pKd: −log10 of the molar value.
Readout: pKd

Lookup: pKd / HLA-A*02:19 / KQLPPLAAW
≤ 4.70

And for IFIRTIYYH ?
≤ 4.70
